IC50: recorded values
test-system: Steroid 17-alpha-hydroxylase/17,20 lyase (Homo sapiens, UniProt P05093)
Sequence (P05093 whole entry): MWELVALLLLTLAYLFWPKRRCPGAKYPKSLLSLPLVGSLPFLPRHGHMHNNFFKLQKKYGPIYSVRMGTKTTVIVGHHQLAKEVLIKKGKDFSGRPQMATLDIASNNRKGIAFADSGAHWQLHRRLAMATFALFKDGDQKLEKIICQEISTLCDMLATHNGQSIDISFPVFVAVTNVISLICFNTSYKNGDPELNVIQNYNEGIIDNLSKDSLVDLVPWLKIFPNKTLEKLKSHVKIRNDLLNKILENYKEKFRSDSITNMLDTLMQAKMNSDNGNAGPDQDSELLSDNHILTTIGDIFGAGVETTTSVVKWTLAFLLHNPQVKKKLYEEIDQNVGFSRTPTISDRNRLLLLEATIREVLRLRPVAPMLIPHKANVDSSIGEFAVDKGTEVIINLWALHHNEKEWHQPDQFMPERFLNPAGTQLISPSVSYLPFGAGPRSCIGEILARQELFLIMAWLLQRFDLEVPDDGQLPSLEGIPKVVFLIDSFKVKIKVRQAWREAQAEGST
test-description: Inhibition of recombinant CYP17 (unknown origin) expressed in human AD293 cells using 21[3H]-17alpha-hydroxyl-pregnenolone as substrate pretreated for 60 mins followed by substrate addition and measured after 4 hrs by Topcount method
The reply should contain only the number, in nM.

O=C(c1cccnc1)N1CCN(c2ccc(/C=C/c3cc(Cl)cc(Cn4ccnc4)c3)cc2)CC1 :: 26
Oc1cc(/C=C/c2ccc(Br)cc2)cc(-n2ccnc2)c1 :: 1200
O=[N+]([O-])c1cccc(S(=O)(=O)N2CCN(c3ccc(/C=C/c4cc(Cl)cc(Cn5ccnc5)c4)cc3)CC2)c1 :: 9
N=C(N)N1CCN(c2ccc(/C=C/c3cc(F)cc(Cn4ccnc4)c3)cc2)CC1 :: 1200
CCS(=O)(=O)N1CCN(c2ccc(/C=C/c3cc(Cl)cc(Cn4ccnc4)c3)cc2)CC1 :: 24

Answer with IC50 of Fc1cc(/C=C/c2ccc(N3CCN(C4=NCCO4)CC3)cc2)cc(Cn2ccnc2)c1 measured for Steroid 17-alpha-hydroxylase/17,20 lyase (Homo sapiens, UniProt P05093).
117

Output reported IC50 of the molecule O=S(=O)(c1c[nH]cn1)N1CCN(c2ccc(/C=C/c3cc(Cl)cc(Cn4ccnc4)c3)cc2)CC1 on Steroid 17-alpha-hydroxylase/17,20 lyase (Homo sapiens, UniProt P05093).
6.2

Report value: IC50, system: Steroid 17-alpha-hydroxylase/17,20 lyase (Homo sapiens, UniProt P05093), molecule: CC(=O)N1CCN(c2ccc(/C=C/c3cc(O)cc(Cn4ccnc4)c3)cc2)CC1
88
